Hey, just so you know, these numbers are from the supplement of paper PMC10567573.

B1: KRT33B (parent)
chain: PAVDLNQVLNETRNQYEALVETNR

- Variants of: B1
- Experimental Details: protein stability index of a GFP-peptide fusion (GPS, HEK-293T) (PSI 1-6); higher = more stable;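 also: lentivirally expressed fusions sorted by FACS into six bins by GFP to DsRed ratio, PSI derived from sequencing read proportions per bin multiplied by bin number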
- Study Conditions: c terminus: a fixed tail appended
Listed next: entries and their corresponding protein stability index.
Quantity Measured: protein stability index

- Residue Change: "V20L"
  Measured Result: 3.88
- Residue Change: "N6A"
  Measured Result: 2.77
- Residue Change: "L19N"
  Measured Result: 4.87
- Residue Change: "D4M"
  Measured Result: 4.15
- Residue Change: "E21S"
  Measured Result: 4.05
- Residue Change: "R13G"
  Measured Result: 4.35
- Residue Change: "L19D"
  Measured Result: 5.42
- Residue Change: "N6C"
  Measured Result: 2.56
- Residue Change: "T12Y"
  Measured Result: 2.77
- Residue Change: "V20Y"
  Measured Result: 4.22
- Residue Change: "E17C"
  Measured Result: 3.65
